Biological target: UniProtKB P06241
Assay: C2: Fyn kinase assay
Assay type: biochemical
Details: 5 ng human Fyn, 1.0 μM unlabeled ATP, poly(Glu,Tyr) 4:1, 25° C., 10 minutes; read-out: C2: Fyn kinase pIC50 (converted)
Procedure: In this assay the Fyn kinase reaction is performed at 25° C. for 10 minutes in a 96-well microtiterplate. The 25 μl reaction volume contains 8 mM MOPS pH 7.0, 20 mM Mg-acetate, 0.2 mM Na2EDTA, 0.5 mM MnCl2, 1.0 μM unlabeled ATP, 0.2 μCi AT^33P, 20 ng poly(Glu,Tyr) 4:1 and 5 ng human Fyn. The reaction is stopped by adding 5 μl of a 3% phosphoric acid solution. […]
readout-label: IC50 (nM)

INSERT INTO assay_data (compound, readout_label, observed_result) VALUES
  ('COc1cc2ncnc3c2cc1OCCCCCNCc1cc(Oc2ccc(C)nc2)c2c(c1N3)OCO2', 'IC50', 40.7);

P = COCCOc1cc2ncnc3c2cc1OCCCNC(=O)[C@H](C)N(C)Cc1ccc2c(c1N3)OCO2
Q = C[C@H]1C(=O)NCCCOc2cc3c(ncnc3cc2OCCCN2CCOCC2)Nc2c(ccc3c2OCO3)CN1C [Compound B6]
Ask: // task: argmin of IC50 over [ P , Q ] Your choice should be expressed through its label.
Reply: Q
(Q: 38 nM, P: 81.3 nM)

----------
target: human Fyn (Homo sapiens, UniProt P06241); test: C2: Fyn kinase assay; assay type: biochemical; details: 5 ng human Fyn, 1.0 μM unlabeled ATP, poly(Glu,Tyr) 4:1, 25° C., 10 minutes; read-out: C2: Fyn kinase pIC50 (converted)
Sequence (P06241 whole entry): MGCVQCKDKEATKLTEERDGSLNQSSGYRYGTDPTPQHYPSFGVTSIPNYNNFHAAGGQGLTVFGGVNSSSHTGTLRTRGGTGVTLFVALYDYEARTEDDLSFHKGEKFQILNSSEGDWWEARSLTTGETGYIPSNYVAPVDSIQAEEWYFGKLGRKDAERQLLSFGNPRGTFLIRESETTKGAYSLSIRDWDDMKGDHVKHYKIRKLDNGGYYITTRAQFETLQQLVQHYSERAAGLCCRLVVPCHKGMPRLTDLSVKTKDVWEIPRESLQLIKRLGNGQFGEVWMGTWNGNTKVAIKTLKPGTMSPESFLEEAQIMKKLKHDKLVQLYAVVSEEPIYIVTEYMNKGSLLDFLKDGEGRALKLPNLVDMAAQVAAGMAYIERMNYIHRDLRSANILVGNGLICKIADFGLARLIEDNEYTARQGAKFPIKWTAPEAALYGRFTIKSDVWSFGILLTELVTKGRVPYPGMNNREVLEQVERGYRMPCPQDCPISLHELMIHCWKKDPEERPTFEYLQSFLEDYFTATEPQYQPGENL
readout-label: IC50 (nM)

Example entries and their recorded answers appear below.
INSERT INTO assay_data (item_smiles, observed_result) VALUES
  ('CN1CCNCCCOc2cc3c(ncnc3cc2OCCCN2CCC(S(C)(=O)=O)CC2)Nc2c(ccc3c2OCO3)C1', 19.5),
  ('C[C@H]1C(=O)NCCCOc2cc3c(ncnc3cc2OC[C@@H]2CO2)Nc2c(ccc3c2OCO3)CN1C', 282),
  ('CN1CCCCCOc2cc3c(ncnc3cc2O)Nc2c(ccc3c2OCO3)C1', 34.7),
  ('COCCOc1cc2ncnc3c2cc1OCCCCCNCc1ccc2c(c1N3)OCO2', 13.2),
  ('CN(CCO)CCCOc1cc2ncnc3c2cc1OCCCNCCN(C)Cc1ccc2c(c1N3)OCO2', 20.9),
  ('C[C@H]1C(=O)NCCCOc2cc3c(ncnc3cc2OCCCN2CCN(CCO)CC2)Nc2c(ccc3c2OCO3)CN1C', 51.3);

I = C[C@H]1C(=O)NCCCOc2cc3c(ncnc3cc2OCCCNCCO)Nc2c(ccc3c2OCO3)CN1C
II = COc1cc2ncnc3c2cc1OCCCNC(=O)[C@H](C)N(C)Cc1cc(Cl)c2c(c1N3)OCO2
Ask: // task: argmin of IC50 over [ I , II ] Your choice should be expressed through its label.
Reply: II
(II: 69.2 nM, I: 129 nM)

----------
molecular target: human Src (Homo sapiens); assay: C1: c-Src filter assay; assay type: biochemical; details: 5 ng human Src, 1.0 μM unlabeled ATP, poly(Glu,Tyr) 4:1, 25° C., 10 minutes; read-out: C1: c-SRC filter pIC50 (converted)
Sequence (P12931 whole entry): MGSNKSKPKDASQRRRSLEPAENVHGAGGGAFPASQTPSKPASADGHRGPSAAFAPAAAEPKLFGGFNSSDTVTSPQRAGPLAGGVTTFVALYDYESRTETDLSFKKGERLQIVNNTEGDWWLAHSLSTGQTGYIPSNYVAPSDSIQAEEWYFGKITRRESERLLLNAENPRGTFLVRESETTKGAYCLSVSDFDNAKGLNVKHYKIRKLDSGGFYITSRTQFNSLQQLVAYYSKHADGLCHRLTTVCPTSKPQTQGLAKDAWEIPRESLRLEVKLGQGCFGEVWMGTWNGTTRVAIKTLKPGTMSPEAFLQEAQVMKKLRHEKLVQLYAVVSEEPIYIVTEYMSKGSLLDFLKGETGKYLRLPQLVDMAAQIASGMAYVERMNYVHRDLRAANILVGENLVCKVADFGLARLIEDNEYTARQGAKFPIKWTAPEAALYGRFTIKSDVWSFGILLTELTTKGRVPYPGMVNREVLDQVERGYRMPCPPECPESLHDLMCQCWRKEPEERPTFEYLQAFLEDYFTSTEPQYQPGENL
readout-label: IC50 (nM)

INSERT INTO results (compound, experimental_target, readout_label, observed_result) VALUES
  ('CN1CCCCCOc2cc3c(ncnc3cc2OCCCNCCO)Nc2c(ccc3c2OCO3)C1', 'human Src (Homo sapiens)', 'IC50', 479),
  ('CN1CCCCCOc2cc3c(ncnc3cc2OCCCNC(=O)CCS(C)(=O)=O)Nc2c(ccc3c2OCO3)C1', 'human Src (Homo sapiens)', 'IC50', 2290),
  ('CN(CCO)CCCOc1cc2ncnc3c2cc1OCCCNCCN(C)Cc1ccc2c(c1N3)OCO2', 'human Src (Homo sapiens)', 'IC50', 501),
  ('CN1CCN(CCCOc2cc3ncnc4c3cc2OCCCNCCN(C)Cc2ccc3c(c2N4)OCO3)CC1', 'human Src (Homo sapiens)', 'IC50', 447),
  ('CN1CCCCCOc2cc3c(ncnc3cc2OC[C@@H](O)CN2CCS(=O)(=O)CC2)Nc2c(ccc3c2OCO3)C1', 'human Src (Homo sapiens)', 'IC50', 676),
  ('CN1CCCCCOc2cc3c(ncnc3cc2OC[C@H](O)CN2CCS(=O)(=O)CC2)Nc2c(ccc3c2OCO3)C1', 'human Src (Homo sapiens)', 'IC50', 1410);

a = COCCNCCCOc1cc2ncnc3c2cc1OCCCNCCN(C)Cc1ccc2c(c1N3)OCO2
b = COc1cc2ncnc3c2cc1OCCCNCCN(C)Cc1ccc2c(c1N3)OCO2
c = CN1CCCCCOc2cc3c(ncnc3cc2OCCC2CCN(C(=O)CCS(C)(=O)=O)CC2)Nc2c(ccc3c2OCO3)C1
d = COCCOc1cc2ncnc3c2cc1OCCCCCN(C)Cc1ccc2c(c1N3)OCO2
Ask: # ascending order, key=IC50 The labels, placed in the requested order, form the answer.
Reply: a, d, c, b
(a: 631 nM, d: 1100 nM, c: 1820 nM, b: 3240 nM)

----------
target: human Fyn (Homo sapiens, UniProt P06241); assay: C2: Fyn kinase assay; assay type: biochemical; details: 5 ng human Fyn, 1.0 μM unlabeled ATP, poly(Glu,Tyr) 4:1, 25° C., 10 minutes; read-out: C2: Fyn kinase pIC50 (converted)
readout-label: IC50 (nM)

Example entries and their recorded answers appear below.
INSERT INTO results (item_smiles, observed_result) VALUES
  ('CN1CCCCCOc2cc3c(ncnc3cc2OCCCN2CCN(CCO)CC2)Nc2c(ccc3c2OCO3)C1', 3.63),
  ('C[C@H]1C(=O)NCCCOc2cc3c(ncnc3cc2OCCCN2CCC(CCS(C)(=O)=O)CC2)Nc2c(ccc3c2OCO3)CN1C', 115);

A = CN1CCN(CCCOc2cc3ncnc4c3cc2OCCCN(C(=O)OC(C)(C)C)CCN(C)Cc2ccc3c(c2N4)OCO3)CC1
B = CN1CCCCCOc2cc3c(ncnc3cc2OCCC2CCN(C(=O)CCS(C)(=O)=O)CC2)Nc2c(ccc3c2OCO3)C1
Ask: Between A and B , whose recorded IC50 is greater? Your choice should be expressed through its label.
Reply: A

----------
target: human Fyn (Homo sapiens, UniProt P06241); test: C2: Fyn kinase assay; assay type: biochemical; conditions: 5 ng human Fyn, 1.0 μM unlabeled ATP, poly(Glu,Tyr) 4:1, 25° C., 10 minutes; read-out: C2: Fyn kinase pIC50 (converted)
readout-label: IC50 (nM)

Example entries and their recorded answers appear below.
INSERT INTO measurements (item_smiles, observed_result) VALUES
  ('CN1CCCCCOc2cc3c(ncnc3cc2OCCCN2CCCC2)Nc2c(ccc3c2OCO3)C1', 0.0575),
  ('COCCOCCOc1cc2ncnc3c2cc1OCCCNC(=O)[C@H](C)N(C)Cc1ccc2c(c1N3)OCO2', 91.2),
  ('COc1cc2ncnc3c2cc1OCCCCCN(C)Cc1cc(Br)c2c(c1N3)OCO2', 19.5),
  ('CN(CCO)CCCOc1cc2ncnc3c2cc1OCCCCCN(C)Cc1ccc2c(c1N3)OCO2', 0.174),
  ('CN1CCCCCOc2cc3c(ncnc3cc2OCCCN2CCCCC2)Nc2c(ccc3c2OCO3)C1', 1.23),
  ('COCCNCCCOc1cc2ncnc3c2cc1OCCCNCCN(C)Cc1ccc2c(c1N3)OCO2', 29.5);

a = C[C@H]1C(=O)NCCCOc2cc3c(ncnc3cc2OCCCN2CCC(S(C)(=O)=O)CC2)Nc2c(ccc3c2OCO3)CN1C
b = COCCOc1cc2ncnc3c2cc1OCCCCCN(C)Cc1ccc2c(c1N3)OCO2
c = CN1CCCCCOc2cc3c(ncnc3cc2OC[C@H](O)CN2CCS(=O)(=O)CC2)Nc2c(ccc3c2OCO3)C1
Ask: # ascending order, key=IC50 The labels, placed in the requested order, form the answer.
Reply: c, b, a

----------
target: human Fyn (Homo sapiens); test: C2: Fyn kinase assay; type: biochemical; conditions: 5 ng human Fyn, 1.0 μM unlabeled ATP, poly(Glu,Tyr) 4:1, 25° C., 10 minutes; read-out: C2: Fyn kinase pIC50 (converted)
readout-label: IC50

INSERT INTO assay_data (item_smiles, observed_result) VALUES
  ('CN1CCCCCOc2cc3c(ncnc3cc2OCCCNCCS(C)(=O)=O)Nc2c(ccc3c2OCO3)C1', '< 1000 nM');

Ask: Given `COCCOCCOc1cc2ncnc3c2cc1OCCCN(C(=O)OC(C)(C)C)CCN(C)Cc1ccc2c(c1N3)OCO2` , respond with its IC50.
Reply: < 1000 nM

Ask: Given `CN1CCCCCOc2cc3c(ncnc3cc2OC[C@@H](O)CN2CCS(=O)(=O)CC2)Nc2c(ccc3c2OCO3)C1` , respond with its IC50.
Reply: < 1000 nM

Ask: Given `CN1CCCCCOc2cc3c(ncnc3cc2OCCCNC(=O)CCS(C)(=O)=O)Nc2c(ccc3c2OCO3)C1` , respond with its IC50.
Reply: < 1000 nM

Ask: Given `CN1CCN(C(=O)OC(C)(C)C)CCCOc2cc3c(ncnc3cc2O)Nc2c(ccc3c2OCO3)C1` , respond with its IC50.
Reply: > 1000 nM

Ask: Given `COc1cc2ncnc3c2cc1OCCCN(C)C(=O)[C@H](C)N(C)Cc1ccc2c(c1N3)OCO2` , respond with its IC50.
Reply: > 1000 nM

Ask: Given `COc1cc2ncnc3c2cc1OCCCCN(C(=O)OCc1ccccc1)CCc1ccc2c(c1N3)OCO2` , respond with its IC50.
Reply: > 1000 nM
